target-desc: T1, BsGpsB1-68 Tyr25Phe (B. subtilis, UniProt P0CI74 1-68, Tyr25Phe)
T1 construct: GpsB, Bacillus subtilis, residues 1-68 (N-terminal domain); also called BsGpsB1-68 Y25F; source: E. coli BL21(DE3), purified (Ni-NTA, thrombin removal of the His6-tag, SEC); not shown: His6, N-terminal, cleaved
T1 sequence (looked up): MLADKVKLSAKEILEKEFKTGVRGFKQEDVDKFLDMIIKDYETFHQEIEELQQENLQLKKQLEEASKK
assay-protocol: fluorescence polarisation; GpsB protein titrated into TAMRA- or fluorescein-labelled peptide; 10 mM Tris.HCl pH 8.0, 250 mM NaCl, 0.1% reduced Triton X-100; all data fitted to a 1:1 interaction model, Kd ± standard error
assay-conditions: both partners purified
No end group written: not given here. C(fluorescein) = cysteine carrying a fluorescein label
assay-readout: Kd

binder="MSNNQSRYENRDKRRKAN-{C(fluorescein)} [Fluoroescein-BsYrrS1-18]" observed_result="> 3000 µM"
binder="GSMADQFNSREARRKANC(TAMRA‑maleimide)KSSPSPKKGKKRKKGG (PBP1 (ponA), Bacillus subtilis, residues 1-32, cytoplasmic mini-domain; also called TAMRA-labelled BsPBP1 1-32 (Ser16Cys); 16-labelled peptide) [TAMRA-BsPBP11-32 wildtype]" observed_result="> 2000 µM"
